# Emax annotations
Molecular target: human P2X4 (Homo sapiens, UniProt Q99571)
Sequence (Q99571 1-388): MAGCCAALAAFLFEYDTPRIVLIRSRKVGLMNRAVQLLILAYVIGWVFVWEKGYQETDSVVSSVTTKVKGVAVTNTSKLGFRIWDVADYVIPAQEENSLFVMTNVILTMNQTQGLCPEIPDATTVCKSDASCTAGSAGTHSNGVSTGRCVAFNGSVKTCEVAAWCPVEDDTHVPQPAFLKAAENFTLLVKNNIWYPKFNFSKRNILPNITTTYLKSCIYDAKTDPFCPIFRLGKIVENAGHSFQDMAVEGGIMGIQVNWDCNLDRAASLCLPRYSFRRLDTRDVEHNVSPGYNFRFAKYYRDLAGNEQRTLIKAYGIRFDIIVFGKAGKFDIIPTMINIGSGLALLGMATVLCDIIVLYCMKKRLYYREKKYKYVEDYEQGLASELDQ
Assay: Human P2X4 HEK Cell FLIPR Assay
Assay type: cell-based
Conditions: HEK293, HEK293 cells, agonist Bz-ATP at EC80; percentage of maximal inhibition; read-out: Human P2X4 HEK Cells (FLIPR Assay) avg Efficacy [%]

# chemical_string, quantity_unit, Emax
data = [
    ("NS(=O)(=O)c1cc(NC(=O)Cc2ccccc2Cl)ccc1-c1cnn2cccnc12", "%", 89),
    ("NS(=O)(=O)c1cc(NC(=O)Cc2ccccc2Cl)ccc1-c1csc(C2CC2)n1", "%", 83),
    ("NS(=O)(=O)c1cc(NC(=O)Cc2ccccc2Cl)ccc1-c1cnc(NC2CC2)nc1", "%", 88),
    ("COc1ccc(CC(=O)Nc2ccc(-c3ccc(Cl)nc3)c(S(N)(=O)=O)c2)cc1", "%", 93),
]
